# IC50 per entry
tested-target: PI3K β (p110β/p85α) (Homo sapiens, UniProt P42338)
Construct: purchased Upstate / Millipore Corporation
Sequence (P42338 whole entry): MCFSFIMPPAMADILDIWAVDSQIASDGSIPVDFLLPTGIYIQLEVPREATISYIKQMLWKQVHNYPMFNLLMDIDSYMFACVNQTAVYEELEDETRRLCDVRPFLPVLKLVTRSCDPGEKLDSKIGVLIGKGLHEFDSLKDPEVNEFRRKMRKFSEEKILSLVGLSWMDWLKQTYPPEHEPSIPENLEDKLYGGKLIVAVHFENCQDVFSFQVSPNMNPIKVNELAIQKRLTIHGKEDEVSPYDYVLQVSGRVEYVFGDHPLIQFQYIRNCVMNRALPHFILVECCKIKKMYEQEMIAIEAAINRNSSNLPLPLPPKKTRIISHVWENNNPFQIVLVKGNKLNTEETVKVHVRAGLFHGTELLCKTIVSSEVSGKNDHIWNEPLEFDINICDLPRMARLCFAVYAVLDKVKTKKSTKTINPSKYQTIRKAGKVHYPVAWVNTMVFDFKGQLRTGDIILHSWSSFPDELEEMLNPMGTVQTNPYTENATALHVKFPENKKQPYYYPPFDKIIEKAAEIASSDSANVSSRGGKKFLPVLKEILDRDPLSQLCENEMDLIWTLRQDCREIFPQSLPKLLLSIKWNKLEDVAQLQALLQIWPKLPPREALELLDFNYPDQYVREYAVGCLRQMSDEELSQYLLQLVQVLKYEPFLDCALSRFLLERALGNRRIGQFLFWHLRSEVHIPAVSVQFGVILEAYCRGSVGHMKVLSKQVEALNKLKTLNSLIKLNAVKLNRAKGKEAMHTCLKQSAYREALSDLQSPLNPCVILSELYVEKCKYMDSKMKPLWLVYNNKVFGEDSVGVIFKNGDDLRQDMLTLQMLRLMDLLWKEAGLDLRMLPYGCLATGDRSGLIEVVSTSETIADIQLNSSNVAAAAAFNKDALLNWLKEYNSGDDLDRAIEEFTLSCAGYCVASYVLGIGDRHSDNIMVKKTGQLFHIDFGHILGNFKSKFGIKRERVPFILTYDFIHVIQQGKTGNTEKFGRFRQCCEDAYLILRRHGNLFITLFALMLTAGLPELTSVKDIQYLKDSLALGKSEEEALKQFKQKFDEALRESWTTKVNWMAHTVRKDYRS
Sequence (P27986 whole entry partner): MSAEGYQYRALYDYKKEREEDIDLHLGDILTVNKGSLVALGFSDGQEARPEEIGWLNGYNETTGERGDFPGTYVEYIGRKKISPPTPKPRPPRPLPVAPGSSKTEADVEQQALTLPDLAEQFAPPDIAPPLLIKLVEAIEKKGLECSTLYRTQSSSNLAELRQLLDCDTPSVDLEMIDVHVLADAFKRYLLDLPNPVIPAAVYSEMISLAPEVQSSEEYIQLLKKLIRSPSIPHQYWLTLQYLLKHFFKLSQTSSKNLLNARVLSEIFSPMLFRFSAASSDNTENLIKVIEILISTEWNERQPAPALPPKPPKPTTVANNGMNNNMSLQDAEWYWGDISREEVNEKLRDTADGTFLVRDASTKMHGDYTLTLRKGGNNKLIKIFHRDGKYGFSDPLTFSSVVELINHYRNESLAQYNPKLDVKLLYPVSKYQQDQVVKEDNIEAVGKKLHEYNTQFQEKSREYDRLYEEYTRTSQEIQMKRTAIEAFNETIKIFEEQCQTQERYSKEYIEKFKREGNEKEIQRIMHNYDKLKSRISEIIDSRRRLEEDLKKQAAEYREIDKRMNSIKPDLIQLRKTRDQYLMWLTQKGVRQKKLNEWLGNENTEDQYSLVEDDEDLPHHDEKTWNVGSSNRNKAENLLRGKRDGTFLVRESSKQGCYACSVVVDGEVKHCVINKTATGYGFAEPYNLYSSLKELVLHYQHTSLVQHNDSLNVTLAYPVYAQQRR
assay-notes: PI 3-Kinase (human) HTRF assay, PI3K β
Assay type: biochemical
recorded-conditions: read-out: PI3K β IC50

# compound, IC50
data = [
    ("Nc1nc2cc(-c3ccc4ncc(-c5ccccn5)nc4c3)ccc2o1", "< 10 µM"),
    ("Nc1nc2cc(-c3ccc4ncc(N5CC(C(=O)N6CCN(CC7CC7)CC6)C5)nc4c3)ccc2o1", "< 10 µM"),
    ("Nc1nc2cc(-c3ccc4ncc(C(=O)NCCOCCO)n4c3)ccc2o1", "< 10 µM"),
    ("C[C@H]1CN(c2cnc3ccc(-c4ccc5oc(N)nc5c4)cc3n2)CCN1", "< 0.1 µM"),
    ("Nc1ncnc2ccc(-c3ccc4nccc(-c5ccncc5)c4c3)cc12", "> 10 µM"),
    ("Nc1nc2cc(-c3ccc4ncc(N5CC(C(=O)N6CCOCC6)C5)nc4c3)ccc2o1 [Compound 169]", "< 1 µM"),
    ("O=C(c1cnc2ccc(-c3cccc(S(=O)(=O)Nc4ccccc4)c3)cn12)N1CCOCC1", "> 10 µM"),
    ("Nc1noc2cc(-c3ccc4ncc(C(=O)N5CCOCC5)n4c3)ccc12", "> 10 µM"),
    ("CC(=O)Nc1cc2ccc(-c3cc(F)c4oc(N)nc4c3)cn2n1", "> 10 µM"),
    ("Nc1nc2cc(-c3nc(N4CCOCC4)c4cnn(C5CCNCC5)c4n3)ccc2o1", "< 0.1 µM"),
    ("Cc1cc2oc(N)nc2cc1-c1ccc2ncc(N3CC(N4CCOCC4)C3)nc2c1", "> 10 µM"),
    ("O=C(c1cnc2ccc(-c3cccc(S(=O)(=O)Nc4cc(F)ccc4F)c3)cn12)N1CCOCC1", "> 10 µM"),
    ("CC1CN(C(=O)c2cnc3ccc(-c4ccc5oc(N)nc5c4)cn23)CCN1 (centres unmarked)", "< 1 µM"),
    ("CN1CCN(Cc2nnc3ccc(-c4ccc5nc(N)oc5c4)cn23)CC1", "> 10 µM"),
    ("CS(=O)(=O)N1CCC(Nc2ncnc3ccc(-c4ccc5oc(N)nc5c4)cc23)CC1", "< 1 µM"),
    ("Nc1nc2cc(-c3ccc4ncc(N5CCC(N6CCOCC6)CC5)nc4c3)ccc2o1", "< 1 µM"),
    ("Nc1nsc2c(-c3ccc4ncc(C(=O)N5CCOCC5)n4c3)cccc12", "> 10 µM"),
]
